Measured pIC50, listed per entry.
# assayed.system: IRAK4 enzyme (Homo sapiens (Human), UniProt Q9NWZ3)
# Sequence (Q9NWZ3 whole entry): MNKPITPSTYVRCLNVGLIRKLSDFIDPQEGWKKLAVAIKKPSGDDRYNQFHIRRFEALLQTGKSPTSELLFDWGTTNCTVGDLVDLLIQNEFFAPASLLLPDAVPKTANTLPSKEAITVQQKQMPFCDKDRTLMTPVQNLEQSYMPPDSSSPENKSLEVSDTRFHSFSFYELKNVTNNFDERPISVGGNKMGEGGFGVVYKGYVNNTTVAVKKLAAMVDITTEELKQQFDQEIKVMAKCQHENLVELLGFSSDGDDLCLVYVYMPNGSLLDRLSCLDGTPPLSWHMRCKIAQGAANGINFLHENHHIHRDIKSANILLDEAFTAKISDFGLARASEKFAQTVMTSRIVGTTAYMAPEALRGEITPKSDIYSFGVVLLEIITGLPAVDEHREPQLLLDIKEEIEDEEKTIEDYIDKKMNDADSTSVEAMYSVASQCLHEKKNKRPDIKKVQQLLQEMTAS
# test.summary: IRAK4 Biochemical Assay (TR-FRET, STK1 KinEASE)
Worth noting: pIC50 values are minus log10 of concentrations stated in mol/L.

The value of pIC50 measured for the molecule CC(C)Nc1cc(-c2ccc3cc(C#N)cnn23)ncc1-c1nnc(N2CCNCC2)s1 turned out to be 9.19

The value of pIC50 measured for the molecule CC1(O)CCN(c2nnc(-c3cnc(-c4ccc5cc(C#N)cnn45)cc3NC3CCOCC3)s2)CC1 turned out to be 8.97

The value of pIC50 measured for the molecule CC(C)Nc1cc(-c2ccc3cc(C#N)cnn23)ncc1-c1nnc(C(=O)N2CC[C@@H](NC(=O)OC(C)(C)C)C2)s1 turned out to be 8.75

The value of pIC50 measured for the molecule CC(=O)NC12CCC(c3nnc(-c4cnc(-c5ccc6cc(C#N)cnn56)cc4N[C@H](C)C#N)s3)(CC1)CC2 turned out to be 9.27

The value of pIC50 measured for the molecule CC(=O)NC1[C@@H]2COC[C@H]1CN(c1nnc(-c3cnc(-c4ccc5cc(C#N)cnn45)cc3NC(C)C)s1)C2 (stereo partly shown) turned out to be 9.17

The value of pIC50 measured for the molecule N#Cc1cnn2c(-c3cc(NC4CCOCC4)c(-c4nnc(N5CC6CC(C5)O6)s4)cn3)ccc2c1 turned out to be 9.39

The value of pIC50 measured for the molecule CC(=O)NC1CCC2(C1)CN(c1nnc(-c3cnc(-c4ccc5cc(C#N)cnn45)cc3NC(C)C)s1)C2 (stereo not shown) turned out to be 9.44

The value of pIC50 measured for the molecule CC(=O)NC12CCC(c3nnc(-c4cnc(-c5ccc6cc(C#N)cnn56)cc4NC(C)C)s3)(CC1)CC2 turned out to be 8.99

The value of pIC50 measured for the molecule CC(=O)NC1CCCN(c2nnc(-c3cnc(-c4ccc5cc(C#N)cnn45)cc3NC(C)C)s2)CC1 (stereo not shown) turned out to be 9.21

The value of pIC50 measured for the molecule CC(=O)N[C@@H]1CCN(c2nnc(-c3cnc(-c4ccc5cc(C#N)cnn45)cc3NC(C)C)s2)CC1(F)F turned out to be 9.19

Others:
The value of pIC50 measured for the molecule C[C@]1(O)CCN(c2nnc(-c3cnc(-c4ccc5cc(C#N)cnn45)cc3NC3CCOCC3)s2)C[C@@H]1F turned out to be 9.46

The value of pIC50 measured for the molecule CC(=O)NC1CC2(C1)CN(c1nnc(-c3cnc(-c4ccc5cc(C#N)cnn45)cc3NC(C)C)s1)C2 turned out to be 8.93

The value of pIC50 measured for the molecule CC(C)Nc1cc(-c2ccc3cc(C#N)cnn23)ncc1-c1nnc(N2CC[C@](C)(O)[C@@H](F)C2)s1 turned out to be 8.86

The value of pIC50 measured for the molecule CC(=O)NC12CC(c3nnc(-c4cnc(-c5ccc6cc(C#N)cnn56)cc4NC(C)C)s3)(C1)C2 turned out to be 8.86

The value of pIC50 measured for the molecule CC(=O)N[C@H]1CCN(c2nnc(-c3cnc(-c4ccc5cc(C#N)cnn45)cc3NC(C)C)s2)C[C@H]1O turned out to be 9.42

Hello, the source for this data is patent US11046686B2, in case you need it.
